test: ABTS radical cation scavenging assay; details: 100 μM
Lab note: compare ABTS+• scavenging activity (% inhibition) against 60%. Equal or greater, write T. Smaller, write F.

Exam item: decide whether the reported ABTS+• scavenging activity (% inhibition) for Oc1ccc(-c2nc3ccc(Cl)cc3o2)c(O)c1 is at least 60%.
T

For this compound, is measured ABTS+• scavenging activity (% inhibition) 60% or higher? Cc1ccc2nc(-c3ccc(O)cc3O)oc2c1
F

Decide: is the reported value of ABTS+• scavenging activity (% inhibition) for Cc1ccc2oc(-c3ccc(O)cc3O)nc2c1 equal to or greater than 60%?
F

Does Oc1ccc(-c2nc3ccc(Cl)cc3o2)cc1O have a reported ABTS+• scavenging activity (% inhibition) of at least 60%?
T

// inclusive: ABTS+• scavenging activity (% inhibition) at least 60%? input: Cc1c(C)c2c(c(C)c1O)CCC(C)(C(=O)O)O2 (stereo not shown) [Trolox, reference compound]
T

Has Cc1ccc2nc(-c3ccc(O)c(O)c3)oc2c1 a recorded ABTS+• scavenging activity (% inhibition) greater than or equal to 60%?
F

Please check the record Cc1ccc2oc(-c3ccc(O)c(O)c3)nc2c1 and state if its ABTS+• scavenging activity (% inhibition) is at or above 60%.
T

====

Would you mind telling me the reported pKi of each entry?
biological target: mushroom tyrosinase (Agaricus bisporus, UniProt C7FF04); construct: purchased Sigma-Aldrich (St. Louis, MO, USA); assay: Kinetic study using mushroom tyrosinase (Lineweaver–Burk and Dixon plots); format: biochemical; details: substrate L-dopa 1, 2, 4, 8 mM; read-out: inhibition constant Ki (Dixon plot)
Sequence (C7FF04 1-392 limits assumed): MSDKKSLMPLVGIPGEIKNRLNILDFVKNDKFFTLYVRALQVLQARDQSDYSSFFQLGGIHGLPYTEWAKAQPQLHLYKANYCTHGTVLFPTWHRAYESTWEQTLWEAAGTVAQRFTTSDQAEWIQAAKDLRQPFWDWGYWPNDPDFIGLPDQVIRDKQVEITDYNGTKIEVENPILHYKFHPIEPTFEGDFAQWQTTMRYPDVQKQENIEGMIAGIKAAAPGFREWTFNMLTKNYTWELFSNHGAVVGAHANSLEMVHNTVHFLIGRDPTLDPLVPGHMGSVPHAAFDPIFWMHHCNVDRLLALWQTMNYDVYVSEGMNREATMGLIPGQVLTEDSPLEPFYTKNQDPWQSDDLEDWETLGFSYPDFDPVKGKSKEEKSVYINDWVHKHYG
Conceptually, pKi converts a concentration in mol/L into minus its log10.

Please report the measured pKi for Cc1ccc2oc(-c3ccc(O)cc3O)nc2c1
4.76

Supply recorded pKi for Oc1ccc(-c2nc3ccc(Cl)cc3o2)c(O)c1 here.
4.90

====

Assignment: determine reported pIC50 for the given molecules.
biological target: mushroom tyrosinase (Agaricus bisporus); construct: purchased Sigma-Aldrich (St. Louis, MO, USA); experiment: Mushroom tyrosinase activity inhibition assay (L-tyrosine or L-dopa as substrate); type: biochemical; settings: mushroom tyrosinase, substrate L-tyrosine, 30 min, 37 °C; mean ± SEM of triplicates; read-out: IC50 Values, L-Tyrosine
Bear in mind: pIC50 is minus log10 of a mol/L concentration; give just that figure.

Provide only the value of recorded pIC50 for Cc1ccc2nc(-c3ccc(O)cc3O)oc2c1 [Compound 3]
6.29

Kindly indicate its recorded pIC50. Item: Cc1ccc2oc(-c3ccc(O)cc3)nc2c1 [Compound 11, 4-(5-Methylbenzo[d]oxazol-2-yl)phenol]
4.11

Look up and state reported pIC50 for Cc1ccc2oc(-c3ccc(O)cc3O)nc2c1 [Compound 13]
5.46

Note down pIC50 recorded for Cc1ccc2oc(-c3ccc(O)c(O)c3)nc2c1 [Compound 15]
4.10

Note down pIC50 recorded for Oc1ccc(-c2nc3ccc(Cl)cc3o2)cc1 [Compound 6, 4-(6-Chlorobenzo[d]oxazol-2-yl)phenol]
4.24

Give pIC50 for Cc1ccc2nc(-c3ccc(O)c(O)c3)oc2c1 [Compound 5]
3.84

State, in one line, measured pIC50 of Oc1ccc(-c2nc3ccc(Cl)cc3o2)c(O)c1 [Compound 8]
5.65

Provide pIC50 value for the following molecule: Oc1ccc(-c2nc3ccc(Cl)cc3o2)cc1O [Compound 10]
4.23

Report pIC50 for COc1ccc(-c2nc3cc(C)ccc3o2)cc1O [Compound 14]
3.83

# return recorded pIC50 for input Cc1ccc2nc(-c3ccc(O)cc3)oc2c1 [Compound 1, 4-(6-Methylbenzo[d]oxazol-2-yl)phenol]
3.82
